- assayed.target: Recombinant human cathepsin A (Homo sapiens)
- Construct: Recombinant human cathepsin A (residues 29-480, with a C-terminal 10-His tag); 10-His (C); purchased R&D Systems 1049-SE
- Sequence (P10619 29-312 limits assumed): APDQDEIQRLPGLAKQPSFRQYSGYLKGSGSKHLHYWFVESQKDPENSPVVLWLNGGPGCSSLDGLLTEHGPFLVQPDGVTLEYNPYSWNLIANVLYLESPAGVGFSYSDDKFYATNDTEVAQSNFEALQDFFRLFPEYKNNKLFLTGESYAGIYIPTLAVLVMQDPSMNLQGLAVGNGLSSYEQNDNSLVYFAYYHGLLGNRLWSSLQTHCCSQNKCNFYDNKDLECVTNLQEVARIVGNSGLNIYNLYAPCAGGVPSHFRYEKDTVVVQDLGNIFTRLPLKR
- Sequence (P10619 327-480 limits assumed): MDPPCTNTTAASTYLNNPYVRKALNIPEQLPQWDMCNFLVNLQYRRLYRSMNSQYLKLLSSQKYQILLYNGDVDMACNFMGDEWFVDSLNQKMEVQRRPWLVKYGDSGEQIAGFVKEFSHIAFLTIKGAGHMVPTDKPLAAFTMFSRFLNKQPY
- method: Cathepsin A inhibitory activity
- Format: biochemical
- condition.info: read-out: Activity (2): Cathepsin A inhibitory activity, IC50 class
So I've got a bunch of molecules here, and I need their IC50 values.

Example cases with answers are listed next.
• CC(C)[C@](C)(O)COc1cc(C(=O)N[C@@H](CC(=O)O)c2ccccc2F)nn1-c1ccccc1F = < 100 nM
• O=C(O)CC(NC(=O)c1cc(O)n(-c2ccccc2)n1)c1ccc(Cl)cc1 (stereo not shown) = 100 to 1000 nM
• COc1ccc(C(CC(=O)O)NC(=O)c2cc(O)n(-c3ccc(F)cc3)n2)c(C)c1 (stereo not shown) = 100 to 1000 nM
• CC(C)[C@@](C)(O)COc1cc(C(=O)NCC(C(=O)O)c2ccccc2)nn1-c1ccccc1F (stereo partly shown) = 100 to 1000 nM
• O=C(O)CC(NC(=O)c1cc(O)n(-c2cccc(F)c2)n1)c1cccc(Cl)c1 (stereo not shown) = 100 to 1000 nM
• Cc1ccc([C@H](CC(=O)O)NC(=O)c2cc(OC[C@](C)(O)C(C)C)n(-c3ccccc3F)n2)c(C)c1 = < 100 nM

Would you mind giving IC50 for every molecule in the list below?
1. O=C(O)CC(NC(=O)c1cc(O)n(-c2ccc(F)cc2)n1)c1ccc(F)cc1F (stereo not shown)
2. COc1cccc([C@H](CC(=O)O)NC(=O)c2cc(OC[C@@](C)(O)C(C)(C)C)n(-c3ccccc3F)n2)c1OC
3. CC(C)(C)[C@@H](O)COc1cc(C(=O)N[C@@H](CC(=O)O)c2cccc(Cl)c2)nn1-c1ccccc1F
4. COc1ccc(C(CC(=O)O)NC(=O)c2cc(O)n(-c3ccc(F)cc3F)n2)c(C)c1 (stereo not shown)
5. O=C(O)C[C@H](NC(=O)c1cc(O)n(-c2ccccc2Cl)n1)c1c(F)cccc1F
6. O=C(O)CC(NC(=O)c1cc(O)n(-c2ccccc2)n1)c1cc(C(F)(F)F)cc(C(F)(F)F)c1 (stereo not shown)
7. CC(C)(CC(=O)O)NC(=O)c1cc(O)n(-c2ccccc2)n1
8. N#Cc1ccc([C@H](CC(=O)O)NC(=O)c2cc(O)n(-c3ccccc3F)n2)cc1

Key:
1. 1000 to 30000 nM
2. < 100 nM
3. < 100 nM
4. 100 to 1000 nM
5. 100 to 1000 nM
6. 1000 to 30000 nM
7. 1000 to 30000 nM
8. 100 to 1000 nM

Would you mind giving IC50 for every molecule in the list below?
1. CC(C)(C)[C@@H](O)COc1cc(C(=O)N[C@@H](CC(=O)O)c2ccc(Cl)cc2)nn1-c1ccccc1F
2. Cc1ccc(C(CC(=O)O)NC(=O)c2cc(O)n(-c3ccccc3)n2)c(C)c1 (stereo not shown)

Key:
1: 100 to 1000 nM; 2: 100 to 1000 nM
